Test system: HT29 colon
Assay: NCI-60 one-dose screen, 48 h (100 = growth as untreated, 0 = no growth, -100 = all killed)
Details: 10 µM unless noted
About 83,000 compounds went through this panel and 20% of them were active in at least one assay; those are over-represented in the sample as a whole.
Kindly state growth for each of the entries shown.
Answers are plain numbers, in %.

Hi team, please reply with growth for each item in this list.
1. COc1ccc2c(c1)/C(=C\c1sc(=S)[nH]c1O)C(C(=O)O)=N2
2. COc1ccc(C2CC(c3cnccn3)=NN2)cc1OC (stereo unspecified)
3. CCOC(=O)C(O)C(O)(c1ccccc1)c1ccccc1 (stereo unspecified)
4. CCOC(=O)c1ccc(NC(=O)CCCN(CC)CC)cc1
5. COc1ccc(-n2sc(=O)n(Cc3ccc(COC(=O)C(C)c4ccc(CC(C)C)cc4)cc3)c2=O)cc1 (stereo unspecified)
6. CN(CCC(=O)/C(=C\c1ccccc1)c1ccc(Cl)cc1)Cc1ccccc1

Result:
[104, 84.9, 99.7, 88.6, 22, 9.63]

Hi team, please reply with growth for each item in this list.
1. C[C@]12CCC(=O)C[C@H]1CC[C@@H]1[C@@H]2CC[C@@]2(C)[C@H]1CC[C@]2(O)C(=O)CO
2. CCCCCCCC/C=C/CCCCCCCC1=NCC[N+]1(CCO)CCO
3. CN1CCC(=C2c3ccccc3C=Cc3ccccc32)CC1

Result:
1: 99.4; 2: 13; 3: 61.9

Hi team, please reply with growth for each item in this list.
1. Clc1ccc(-c2nc(NCCc3ccccc3)nc3c(NCCc4ccccc4)cnn23)cc1
2. CCNCCNc1cc(-c2ccc(C#N)cc2)c(C#N)c2nc3ccccc3n12
3. Clc1ccc2c(NCCCN3CCN(c4nc(-n5ccnc5)nc5ccccc45)CC3)ccnc2c1
4. CC(=O)NCC(=O)Nc1ccc(-c2nnc3ccccn23)nc1.CC(=O)NCC(=O)Nc1ccc(-c2nnc3ccccn23)nc1.[Pt+2]
5. CC(=O)Nc1ccc(C(=O)/C=C/c2ccccc2)cc1

Result:
1. 41.9
2. 4.72
3. -16.2
4. 98.3
5. 44.6

Hi team, please reply with growth for each item in this list.
1. N#Cc1cnn2c(-c3ccc(Cl)cc3)nc(NC3CC3)nc12
2. CC1(C)N=C(N)N=C(N)N1c1cccc(CN)c1
3. O=C(NCc1cccnc1)c1cc(-c2csc3c(=O)cc(N4CCOCC4)oc23)cc2c1OCCO2

Result:
88.8
95.7
18

Hi team, please reply with growth for each item in this list.
1. COc1cc(CNC(=O)/C=C/C=C/c2ccc3c(c2)OCO3)ccc1OCc1cn(-c2ccc(Cl)c(Cl)c2)nn1
2. O=c1oc2ccc(Cl)cc2cc1-c1cs/c(=N/N=C\c2ccc(Cl)cc2)n1/N=C/c1ccc(Cl)cc1

Result:
1. 5.61
2. 91.8

Hi team, please reply with growth for each item in this list.
1. CC(C)(O)c1cccc(F)c1
2. O=C(/C=C/c1ccccc1)c1ccc2ccccc2c1

Result:
[108, 54.7]
